Measured GI50 values are reported for all entries that follow.
system: SK-MEL-2; experiment: NCI tumour cell line growth inhibition, 48 h
Active and inactive are the calls of the source. Rule as the data show it: active = GI50 up to about 1.1 µM and inactive = higher.

Param readout = GI50; param system = SK-MEL-2; param query = COc1ccc(P2(=S)OCCOP(=S)(c3ccc(OC)cc3)S2)cc1 (configuration not stated) ; response: value
3.51 µM (inactive)

Param readout = GI50; param system = SK-MEL-2; param query = `Brc1ccc2c(c1)C1(c3cc(Br)ccc3-2)c2cc(Br)ccc2-c2ccc(Br)cc21` ; response: value
> 100 µM (inactive)

Param readout = GI50; param system = SK-MEL-2; param query = `C=C(CN(C)C)C(=O)c1ccc(C(=O)C(=C)CN(C)C)cc1` ; response: value
> 100 µM (inactive)

Param readout = GI50; param system = SK-MEL-2; param query = `N/C(=N\N=C=C1C(=O)Nc2ccc(F)cc21)NO` ; response: value
> 100 µM (inactive)

Param readout = GI50; param system = SK-MEL-2; param query = `CCCCCCCCCC(=O)Oc1cccc2onc(C)c12` ; response: value
> 100 µM (inactive)
